- System: CCRIS mutagenicity, Ames/micronucleus/aberration tests
- test_description: CCRIS mutagenicity studies
- cond: Test System: AMES SALMONELLA TYPHIMURIUM; Strain/Indicator: TA100; Metabolic Activation: NONE; Method: PREINCUBATION
Activity calls are given as the source filed them. No rule for the calls is given here.
Outcome codes: 1 (yes) = active, 0 (no) = inactive

* CC(=O)Nc1ccc(S(=O)(=O)Nc2ccccn2)cc1 | 0 (no)
* Nc1ccc(Oc2ccc(N)c(N)c2)cc1 | 0 (no)
* O=S(O)CO | 0 (no)
* Brc1ccccc1 | 0 (no)
* c1ccc(N=Nc2ccccc2)cc1 | 0 (no)
* Clc1ccc(C(Cl)(Cl)Cl)cc1Cl | 0 (no)
* CCCCC(CC)COC(=O)CCCCCCCCC(=O)OCC(CC)CCCC (configuration not stated) | 0 (no)
* Nc1cccc2cccc(S(=O)(=O)O)c12 | 0 (no)
* O=c1oc2cccc3ccc4cccc1c4c32 | 0 (no)
* CC(C)(S)C(=O)N[C@@H](CS)C(=O)O | 0 (no)
* CCOc1ccc(N=O)cc1 | 1 (yes)
* CCCCCCCCCCCCCCCCCC(=O)NCCNC(=O)CCCCCCCCCCCCCCCCC | 0 (no)
* Clc1ccc(Cl)c(Cl)c1Cl | 0 (no)
* CCCCCCCCCCCC(=O)[O][Sn]([CH2]CCC)([CH2]CCC)[O]C(=O)CCCCCCCCCCC | 0 (no)
* CC(=O)C(N=Nc1ccc(-c2ccc(N=NC(C(C)=O)C(=O)Nc3ccccc3)c(Cl)c2)cc1Cl)C(=O)Nc1ccccc1 (configuration not stated) | 0 (no)
* CN(C)N | 0 (no)
* C[N+](C)(C)CCO | 0 (no)
